tested on: SF-268 CNS; test: NCI tumour cell line growth inhibition, 48 h
readoutName: TGI

Cn1cc(C2=C(c3cccnc3)C(=O)NC2=O)c2ccccc21
> 25 µM

Response field TGI (SF-268 CNS) for item `O=C(CCCN1CCOCC1)Nc1ccc(Cn2nnc3c2C(=O)c2nnn(Cc4ccc(NC(=O)CCCN5CCOCC5)cc4)c2C3=O)cc1` : 12.1 µM

# TGI measured on SF-268 CNS for item `Cc1cc(C2=NNC(=O)Cc3cc4c(cc32)OCCO4)cc(C)c1N` = > 100 µM

* * *

system: MDA-MB-231 breast; experiment: NCI tumour cell line growth inhibition, 48 h; in the data active = GI50 below about 0.43 µM; inactive = the rest
Thanks in advance; please answer with one of these: active, inactive

Examples with answers:
CO/N=C(\C)c1cccc(Nc2cc(-c3ccccc3)nc3c(O)cccc23)c1
inactive
C[C@@H]1CC[C@@H]2[C@@H]1[C@H](OC(=O)/C=C/c1ccccc1)[C@]1(C3CCCCC3)C[C@@H](NC(=O)CO)[C@@]2(C)O1
inactive
CC(C)(C#N)c1cc(F)cc(C(=O)Nc2cc(Nc3ncccc3-c3ncnc4nc[nH]c34)ccc2F)c1
active
CC(=O)O[C@H](C[C@H](C(C)C)N(C)C(=O)[C@@H](NC(=O)[C@H]1CCCCN1C)C(C)C)c1nc(C(=O)N[C@@H](Cc2ccccc2)C[C@H](C)C(=O)O)c(C(C)C)s1
active
COC(=O)c1ccc(NC(=O)Nc2ccc3oc(=O)c4ccccc4c3c2)cc1
inactive
CCCC[N+](CCCC)=c1ccc2nc3c(C)cc(N(CC)CC)cc3sc-2c1
active
COc1cccc2c1-c1c(c3ccc([N+](=O)[O-])cc3c(=O)n1CCCCl)C2=O
inactive

Now turn to the next molecule.
// param item: `COc1cc2nccc(Oc3ccc(NC(=O)C4(C(=O)Nc5ccc(F)cc5)CC4)cc3)c2cc1Oc1ccc(N)cn1` ; yields the recorded call inactive
